Every entry's value here was drawn from patent US20160227776A1.

Tested on: Frankliniella occidentalis
Assay summary: Test Example 1: water trap attraction test, single compounds
Assay type: in vivo
Parameters: key: (captured treated − captured untreated)×100/total released per cage
Study conditions: single compound, Amount 0.1 μg; 30 adult females per cage; 24 hours
Result type: Attraction Rate

compound="COC(=O)c1ccccc1C [Methyl o-toluate, methyl o-toluate]" result_type="Attraction Rate" value=13
compound="C=CC(C)(O)CCC=C(C)C (stereo not drawn)" result_type="Attraction Rate" value=13
compound=CC(C)=CCC/C(C)=C\CO result_type="Attraction Rate" value=33
compound=O=Cc1ccccc1 result_type="Attraction Rate" value=33
compound=COc1ccccc1N result_type="Attraction Rate" value=10
compound=COc1ccc(C=O)cc1 result_type="Attraction Rate" value=23
compound=CC(=O)c1ccccc1N result_type="Attraction Rate" value=17
compound=CC(C)=CCC/C(C)=C/CO result_type="Attraction Rate" value=17
compound=CCCCCCC(C=O)=Cc1ccccc1 result_type="Attraction Rate" value=27
